Where do the numbers come from? From paper PMC5686072.

target: EB1_191–260 (EB1c) (Homo sapiens, UniProt Q15691); construct: Human EB1 (Uniprot code Q15691), residues 191–260, was cloned into pOPINS vector; SUMO fusion protein (cleaved yes); 6xHis (cleaved yes); experiment: 1H-15N HSQC NMR ligand screening / titration (chemical shift perturbations, KD by curve fitting); settings: NMR titration curves (Tyr247) fitted to two-state exchange model; 50 μM protein; read-out: estimated KD
Sequence (Q15691 191-260): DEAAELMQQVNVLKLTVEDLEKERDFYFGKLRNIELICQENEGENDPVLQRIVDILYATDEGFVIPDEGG
Where a SMILES comes first, the peptide text is derived from it.
measured-parameter: Kd (mM)

INSERT INTO results (compound, unit_annotation, readout_number) VALUES
  ('CC[C@H](C)[C@H](NC(=O)[C@H](CCCCN)NC(=O)[C@@H](N)CO)C(=O)N1CCC[C@H]1C(=O)O [SKIP, reference compound] (H-SKIP-OH)', 'mM', 14);

(a) C[C@@H](Sc1nnnn1C1CCCC1)C(=O)NCc1ccco1
(b) Cc1c(NC(=O)[C@@H](C)Sc2nnnn2C2CCCC2)c(=O)n(-c2ccccc2)n1C
Form: Entry with minimum Kd (choose one): a / b Answer = label.
b
(b: 6 mM, a: 10 mM)
